# EXPERIMENT DESCRIPTION: Concentration detected in blood of rat 1 hr after an oral dose of 200 mg/kg
# Type: ADME, organism-based
# Set-up: dose 200 mg/kg, route oral
REPORTED ENDPOINT: concentration at 1 h
Report the figure along with its unit, number first.

// sample CC(C)C[C@H](NC(=O)C(O)C1OC(=O)CC1N)[C@@H]1Cc2cccc(O)c2C(=O)O1.Cl (stereo partly specified) , its concentration at 1 h was 800 ng/mL

---

Here the recorded P is given for each entry.
# EXPERIMENT DESCRIPTION: Lipid solubility measured as chloroform-water partition coefficient
# Type: physicochemical

Worked cases, P given:
> print(dat)
                                   compound  endpoint.result
1  CCNC1CC(=O)OC1C(O)C(=O)NC(CC(C)C)C1Cc2cccc(O)c2C(=O)O1 (centres undefined)               43
2                Cn1cnc2c1c(=O)[nH]c(=O)n2C              0.1
3                                CNc1ccccc1             > 19

// sample CCCCCCNC1CC(=O)OC1C(O)C(=O)NC(CC(C)C)C1Cc2cccc(O)c2C(=O)O1 (centres undefined) , its P was 3000

// sample CCCCNC1CC(=O)OC1C(O)C(=O)NC(CC(C)C)C1Cc2cccc(O)c2C(=O)O1 (centres undefined) , its P was 1700

---

# Test system: Rattus norvegicus
# EXPERIMENT DESCRIPTION: Gastroprotective activity as % protection against stress ulcers in 5 rats after an intraperitoneal dose of 12.5 mg/kg
# Format: functional
Here the recorded Protection is given for each entry.
A number alone suffices; assume %.

Worked cases, Protection given:
> print(dat)
                                   molecule  unit.descriptor  endpoint.result
1  CC(C)C[C@H](NC(=O)C(O)C1OC(=O)CC1N)[C@@H]1Cc2cccc(O)c2C(=O)O1.Cl (some centres undefined)                %               66
2  CC(C)C[C@H](NC(=O)[C@@H](O)[C@@H](O)[C@@H](N)CC(=O)O)[C@@H]1Cc2cccc(O)c2C(=O)O1                %               78
3  CCCNC1CC(=O)OC1C(O)C(=O)NC(CC(C)C)C1Cc2cccc(O)c2C(=O)O1 (centres undefined)                %               44

Moving on to the next molecule.
// sample CCNC1CC(=O)OC1C(O)C(=O)NC(CC(C)C)C1Cc2cccc(O)c2C(=O)O1 (centres undefined) , its Protection was 66

---

# System: Rattus norvegicus
# EXPERIMENT DESCRIPTION: Gastroprotective activity as % protection against stress ulcers in 5 rats after an oral dose of 50 mg/kg
# Format: functional
Here the recorded Protection is given for each entry.
A number alone suffices; assume %.

Worked cases, Protection given:
> print(dat)
                                   molecule  unit.descriptor  endpoint.result
1  CCCCNC1CC(=O)OC1C(O)C(=O)NC(CC(C)C)C1Cc2cccc(O)c2C(=O)O1 (stereo not drawn)                %               66
2  CCCNC1CC(=O)OC1C(O)C(=O)NC(CC(C)C)C1Cc2cccc(O)c2C(=O)O1 (stereo not drawn)                %               94
3  CCCCCNC1CC(=O)OC1C(O)C(=O)NC(CC(C)C)C1Cc2cccc(O)c2C(=O)O1 (stereo not drawn)                %               33
4  CCCCCCNC1CC(=O)OC1C(O)C(=O)NC(CC(C)C)C1Cc2cccc(O)c2C(=O)O1 (stereo not drawn)                %               44
5  CNC1CC(=O)OC1C(O)C(=O)NC(CC(C)C)C1Cc2cccc(O)c2C(=O)O1 (stereo not drawn)                %               56

// sample CC(C)C[C@H](NC(=O)[C@@H](O)[C@@H](O)[C@@H](N)CC(=O)O)[C@@H]1Cc2cccc(O)c2C(=O)O1 , its Protection was 0

// sample CC(C)C[C@H](NC(=O)C(O)C1OC(=O)CC1N)[C@@H]1Cc2cccc(O)c2C(=O)O1.Cl (stereo partly drawn) , its Protection was 66

// sample CCNC1CC(=O)OC1C(O)C(=O)NC(CC(C)C)C1Cc2cccc(O)c2C(=O)O1 (stereo not drawn) , its Protection was 78

The values you see were collected from ChEMBL document CHEMBL1123133.
